Assay: Octanol-aqueous buffer distribution coefficient, log D of the compound by LC-MS analysis
Type: physicochemical
Readout: logD
Answer with the value's number alone.

Example cases with answers are listed next.
Chemical Smiles: CC(=O)Oc1cc2c(cc1NC(=O)c1ccc(C(C)(C)C)cc1)CCCCC2
logD: 5
//
Chemical Smiles: COc1nc2c(cc1C(=O)Nc1ccc(C(C)(C)C)cc1)CCCCC2
logD: 4.6
//
Chemical Smiles: CC(C)(C)c1ccc(C(=O)Nc2cc3c(cc2O)CCCCC3)cc1
logD: 5

Task: Which logD value is on record for CC(C)(C)c1ccc(C(=O)Nc2ccc3c(c2)CCCCC3)cc1 ?
Output: 4

Task: Which logD value is on record for CC(C)(C)c1ccc(C(=O)Nc2cc3c(cc2CO)CCCCC3)cc1 ?
Output: 4

###

Assay: Oral bioavailability in C57BL/6 mouse at 40 mg/kg
Assay type: ADME, organism-based
Settings: in vivo
Readout: bioavailability (%)
Kindly answer with a numeric value in %, unit omitted.

Task: Which bioavailability value is on record for COc1cc2c(cc1C(=O)Nc1ccc(C(C)(C)C#N)cc1)CCCCC2 ?
Output: 41

###

Test: Aqueous solubility of the compound
Format: physicochemical
Details: aqueous; read-out: solubility
Catalogue of solubility readings, one per entry.

Example cases with answers are listed next.
Chemical Smiles: CC(C)(C)c1ccc(C(=O)Nc2cc3c(cc2F)CCCCC3)cc1
Endpoint Result: 33 µM

Chemical Smiles: Cc1cc2c(cc1NC(=O)c1ccc(C(C)(C)C)cc1)CCCCC2
Endpoint Result: < 1 µM

Chemical Smiles: CCc1cc2c(cc1NC(=O)c1ccc(C(C)(C)C)cc1)CCCCC2
Endpoint Result: < 1 µM

Chemical Smiles: CC(C)(C)c1ccc(C(=O)Nc2cc3c(cc2CO)CCCCC3)cc1
Endpoint Result: < 1 µM

Chemical Smiles: COc1cc2c(cc1C(=O)Nc1ccc(C(C)(C)C#N)cc1)CCCCC2
Endpoint Result: < 1 µM

Task: Which solubility value is on record for COc1cc2c(cc1NC(=O)c1ccc(C(C)(C)O)cc1)CCCCC2 ?
Output: 8 µM

###

Experiment: AUC in C57BL/6 mouse at 40 mg/kg, po
Assay type: ADME, organism-based
Parameters: dose 40 mg/kg
Conditions: in vivo
Readout: AUC
Field: value (include unit after the number)

Task: Which AUC value is on record for COc1cc2c(cc1C(=O)Nc1ccc(C(C)(C)C#N)cc1)CCCCC2 ?
Output: 7950 ng·h/mL

Data credit: ChEMBL document CHEMBL4834424
